- assay.system: recombinant human KLK5 (human) (UniProt Q9Y337)
- Sequence (Q9Y337 67-293): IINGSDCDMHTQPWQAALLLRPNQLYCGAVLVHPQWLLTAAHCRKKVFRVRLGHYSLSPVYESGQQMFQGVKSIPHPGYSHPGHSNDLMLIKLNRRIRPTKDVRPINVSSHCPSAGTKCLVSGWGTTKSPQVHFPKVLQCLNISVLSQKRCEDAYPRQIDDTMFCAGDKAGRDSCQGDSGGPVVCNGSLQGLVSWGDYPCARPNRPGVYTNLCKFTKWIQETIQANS
- assay.text: Kiapp assay curve, 0.063 nM KLK5, Z-VPR-pNA
quantity.kind: IC50 (read off the curve) (pM)
I only need the number, in pM, no unit after it.

Solved cases below.
binder | unit.descriptor | IC50 (read off the curve)
9F2 (antibody, V domains shown) VH: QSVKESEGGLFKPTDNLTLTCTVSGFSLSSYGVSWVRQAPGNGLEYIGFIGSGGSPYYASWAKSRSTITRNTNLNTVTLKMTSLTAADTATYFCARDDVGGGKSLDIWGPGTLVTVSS VL: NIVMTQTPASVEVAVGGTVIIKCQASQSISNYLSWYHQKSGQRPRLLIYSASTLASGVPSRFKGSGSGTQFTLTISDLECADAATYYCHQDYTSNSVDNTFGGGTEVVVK | pM | 200
8B7 (antibody, V domains shown) VH: QSVKESEGGLFKPTDNLTLTCTVSGFSLSNYGVTWVRQAPGNGLEYIGFIGSSGSAYYASWAKSRSTITRNTNLNTVTLKMTSLTAADTATYFCARDDVGGGKSLDIWGPGTLVTVSS VL: NIVMTQTPASVEVAVGGTVTIKCQASQSIGSYLSWYQQKPGQPPKLLIYDASNLASGVPSRFKGSGSGTQFTLSISDLECADAATYYCHQDYTSNNVDNTFGGGTEVVIK | pM | 200
9H3 (antibody, V domains shown) VH: QSVKESEGGLFKPTDTLTLTCTVSGFSLSGYGVSWVRQAPGKGLEYIGFIGSGGSAYYASWAKSRSTITRNTNLNTVTLKMTRLTAADTATYFCARDNVGGDMSLDIWGPGTLVTVSS VL: DIVMTQTPASVSEPVGGTVTIKCQASQNINNYLSWYQQKPGQPPKQLIYAASTLASGVPSRFKGSGSGTQFTLTISDLECADAATYYCHQDYTSNNVDNTFGGGTEVVVK | pM | 50
9B6 (antibody, V domains shown) VH: QSVKESEGGLFKPTDNLTLTCTVSGFSLSNYGVTWVRQAPGNGLEYIGFIGSGGSAYYASWAKSRSTITRNTNLNTVTLKMTSLTAADTATYFCARDDVGGGKSLDIWGPGTLVTVSS VL: NIVMTQTPASVEVAVGGTVVIKCQASQNIGDYLSWYQQKPGQRPKLLIYSASTLASGVPSRFKGSGSGTQFTLTISDLECADAATYYCHQDYTSNDVENTFGGGTEVVVK | pM | 100
10H3 (antibody, V domains shown) VH: QSVKESEGGLIKPTDTLTLTCTVSGFSLSTFAINWVRQAPGNGLEWIGAIGRGGSAYYASWAKSRSTITKNTNLNTVTLKMTRPTAADTATYFCARENAGSGWGELDIWGPGTLVTVSS VL: AYEMTQTPASVEVAVGGTVTINCQASESISSDLAWYQQKPGQRPKLLIYAASTLASGVPSRFKGSGSGTEFTLSISGVQCADAATYYCQQGYTWNNVDNVFGGGTEVVVK | pM | 200
10C8 (antibody, V domains shown) VH: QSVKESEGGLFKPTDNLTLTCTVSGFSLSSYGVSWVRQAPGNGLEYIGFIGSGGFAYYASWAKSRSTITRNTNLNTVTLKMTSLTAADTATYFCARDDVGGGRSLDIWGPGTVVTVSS VL: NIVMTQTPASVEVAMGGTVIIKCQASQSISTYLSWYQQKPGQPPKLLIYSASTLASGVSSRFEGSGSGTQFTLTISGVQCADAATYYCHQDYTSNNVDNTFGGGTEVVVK | pM | 200

// 9H5 (antibody, V domains shown) VH: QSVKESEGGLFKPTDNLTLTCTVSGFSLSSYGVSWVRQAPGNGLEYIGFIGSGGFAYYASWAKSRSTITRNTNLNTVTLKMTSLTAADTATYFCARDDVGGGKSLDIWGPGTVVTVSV VL: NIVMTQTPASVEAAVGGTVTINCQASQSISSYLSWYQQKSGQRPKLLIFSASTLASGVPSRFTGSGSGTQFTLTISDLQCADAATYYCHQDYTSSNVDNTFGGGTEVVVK : IC50 (read off the curve) value = 200
